Target: SERT (Rattus norvegicus)
Construct: 100 μl of tissue preparation (2 mg of brain stem membranes per well); tissue Bioreclamation IVT (Hicksville, N.Y.); host or cells: male Sprague-Dawley rat brain stem membranes
Sequence (P31652 whole entry): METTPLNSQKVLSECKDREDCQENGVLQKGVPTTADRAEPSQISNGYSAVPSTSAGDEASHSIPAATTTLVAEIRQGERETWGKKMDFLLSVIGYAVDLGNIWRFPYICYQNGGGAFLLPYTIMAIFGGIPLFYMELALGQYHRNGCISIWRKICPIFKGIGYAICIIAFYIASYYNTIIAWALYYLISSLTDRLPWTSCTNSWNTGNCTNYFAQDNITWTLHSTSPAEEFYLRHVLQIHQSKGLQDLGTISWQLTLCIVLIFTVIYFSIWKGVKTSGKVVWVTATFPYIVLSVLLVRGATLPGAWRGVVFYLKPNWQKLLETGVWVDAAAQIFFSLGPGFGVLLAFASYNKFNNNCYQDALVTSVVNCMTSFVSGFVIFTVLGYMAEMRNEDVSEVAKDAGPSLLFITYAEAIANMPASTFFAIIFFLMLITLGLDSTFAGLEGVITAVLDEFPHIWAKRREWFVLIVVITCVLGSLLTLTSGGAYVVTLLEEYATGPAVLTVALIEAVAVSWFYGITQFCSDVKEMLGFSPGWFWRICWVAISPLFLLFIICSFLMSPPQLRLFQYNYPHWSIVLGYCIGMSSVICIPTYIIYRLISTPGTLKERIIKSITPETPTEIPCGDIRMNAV
Test: SERT radioligand binding in rat midbrain ([3H]-Citalopram competition)
Conditions: rat midbrain/brain stem membranes, [3H]-Citalopram, mean ± SEM; read-out: SERT (rat mid-brain-stem) Ki ± SEM
pKi values for the molecules below.
Scale explanation: pKi corresponds to minus log10 of a concentration expressed in moles per litre.

Recorded pKi, per entry:
{"MOLECULE": "Cl.Cl.Fc1ccc(C(SCCN2CCC(NCc3ccc(C(F)(F)F)cc3)CC2)c2ccc(F)cc2)cc1", "EXPERIMENTAL RESULT": 5.98}
{"MOLECULE": "Cl.Cl.Fc1ccc(C(SCCNC2CCN(Cc3cc4ccccc4[nH]3)CC2)c2ccc(F)cc2)cc1", "EXPERIMENTAL RESULT": 5.76}
{"MOLECULE": "Cl.Cl.Fc1ccc(C(SCCNC2CCN(CCc3ccccc3)CC2)c2ccc(F)cc2)cc1", "EXPERIMENTAL RESULT": 6.84}

Form field pKi, entry CC(O)CN1[C@H](C)CN(CCSC(c2ccc(F)cc2)c2ccc(F)cc2)C[C@@H]1C (stereo partly shown) : 4.83
